# target.or.system: Ag85A (Mycobacterium tuberculosis)
# Sequence (P9WQP3 44-338): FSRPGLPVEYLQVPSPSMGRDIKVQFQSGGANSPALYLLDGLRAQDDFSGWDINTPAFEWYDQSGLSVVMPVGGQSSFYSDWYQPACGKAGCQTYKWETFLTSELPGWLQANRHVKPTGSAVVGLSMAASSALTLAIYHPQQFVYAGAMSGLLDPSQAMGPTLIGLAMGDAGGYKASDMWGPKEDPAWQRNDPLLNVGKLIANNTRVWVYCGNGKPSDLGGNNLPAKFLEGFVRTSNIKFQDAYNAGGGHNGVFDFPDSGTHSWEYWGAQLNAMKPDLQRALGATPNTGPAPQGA
# Format: biochemical
# measurement.context: ratio of peak height of mono-hexanoyl ester of labelled/derivatised Tre to peak height of labelled/derivatised Tre; 500 μM di-hexanoyl ester, 500 μM substrate, 100 nM enzyme, 1 mM TEA pH 7.2, 37° C; compound 1 (Tre) = 100
Lab note - cut at 30 for Relative substrate response towards transesterification, Ag85A: label 1 if strictly below, label 0 if not.

[
  {
    "compound": "C[C@]1(O[C@H]2OC(CO)[C@@H](O)C(O)C2F)OC(CO)[C@H](O)C(O)C1O (stereo partly drawn)",
    "class.name": "label 1"
  },
  {
    "compound": "OCC1O[C@H](O[C@@H]2CC(O)[C@H](O)C(CO)O2)CC(O)[C@@H]1O (stereo partly drawn)",
    "class.name": "label 0"
  },
  {
    "compound": "C[C@]1(O[C@H]2OC(CO)[C@@H](O)C(O)C2N)OC(CO)[C@@H](O)C(O)C1O (stereo partly drawn)",
    "class.name": "label 0"
  },
  {
    "compound": "O=P(O)(O)OCC1O[C@H](O[C@H]2OC(CO)[C@@H](O)C(O)C2O)C(O)C(O)[C@@H]1O (stereo partly drawn) [Compound 15, Trehalose-6-phosphate]",
    "class.name": "label 1"
  },
  {
    "compound": "C[C@]1(O[C@H]2OC(CO)[C@@H](O)C(O)C2F)OC(CO)[C@@H](O)C(O)C1O (stereo partly drawn)",
    "class.name": "label 0"
  },
  {
    "compound": "C[C@]1(O[C@H]2OC(CO)[C@@H](O)C(O)C2O)OC(CO)[C@@H](O)C(O)C1O (stereo partly drawn)",
    "class.name": "label 0"
  }
]

###

# target.or.system: Ag85B (Mycobacterium tuberculosis)
# Sequence (P9WQP1 41-325): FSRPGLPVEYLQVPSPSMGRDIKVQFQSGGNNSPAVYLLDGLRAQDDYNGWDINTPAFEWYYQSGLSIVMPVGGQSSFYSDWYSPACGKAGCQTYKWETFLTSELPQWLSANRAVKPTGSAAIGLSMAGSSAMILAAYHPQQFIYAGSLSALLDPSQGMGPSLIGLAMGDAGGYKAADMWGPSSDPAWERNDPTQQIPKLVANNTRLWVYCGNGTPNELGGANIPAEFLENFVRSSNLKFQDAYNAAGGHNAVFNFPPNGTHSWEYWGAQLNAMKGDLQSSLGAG
# Format: biochemical
# measurement.context: ratio of peak height of mono-hexanoyl ester of labelled/derivatised Tre to peak height of labelled/derivatised Tre; 500 μM di-hexanoyl ester, 500 μM substrate, 100 nM enzyme, 1 mM TEA pH 7.2, 37° C; compound 1 (Tre) = 100
property.measured: Relative substrate response towards transesterification, Ag85B

[
  {
    "compound": "OCC1O[C@H](O[C@@H]2CC(O)[C@H](O)C(CO)O2)CC(O)[C@@H]1O (some centres unmarked)",
    "endpoint.result": 16
  },
  {
    "compound": "OC[C@H]1O[C@H](O[C@H]2O[C@H](CO)[C@@H](O)[C@H](O)[C@H]2O)[C@H](O)[C@@H](O)[C@@H]1O [Compound 1, trehalose, reference compound]",
    "endpoint.result": 100
  },
  {
    "compound": "OCC1O[C@H](O[C@@H]2OC(CO)[C@@H](O)C(O)C2F)C(F)C(O)[C@@H]1O (some centres unmarked)",
    "endpoint.result": 35
  },
  {
    "compound": "OCC1O[C@H](O[C@H]2OC(CO)[C@@H](O)C(O)C2F)C(F)C(O)[C@@H]1O (some centres unmarked)",
    "endpoint.result": 24
  },
  {
    "compound": "COP(=O)(O)OCC1O[C@H](O[C@H]2OC(CO)[C@@H](O)C(O)C2O)C(O)C(O)[C@@H]1O (some centres unmarked)",
    "endpoint.result": 24
  },
  {
    "compound": "C[C@]1(O[C@H]2OC(CO)[C@@H](O)C(O)C2F)OC(CO)[C@@H](O)C(O)C1O (some centres unmarked)",
    "endpoint.result": 1415
  },
  {
    "compound": "C[C@]1(O[C@H]2OC(CO)[C@@H](O)C(O)C2N)OC(CO)[C@@H](O)C(O)C1O (some centres unmarked)",
    "endpoint.result": 56
  },
  {
    "compound": "OCC1O[C@H](O[C@H]2OC(CBr)[C@@H](O)C(O)C2O)C(O)C(O)[C@@H]1O (some centres unmarked)",
    "endpoint.result": 92
  },
  {
    "compound": "OCC1O[C@H](O[C@H]2OC(CO)[C@@H](O)C(O)C2I)C(I)C(O)[C@@H]1O (some centres unmarked)",
    "endpoint.result": 54
  },
  {
    "compound": "[N-]=[N+]=NCC1O[C@H](O[C@H]2OC(CO)[C@@H](O)C(O)C2O)C(O)C(O)[C@@H]1O (some centres unmarked)",
    "endpoint.result": 13
  },
  {
    "compound": "O=P(O)(O)OCC1O[C@H](O[C@H]2OC(CO)[C@@H](O)C(O)C2O)C(O)C(O)[C@@H]1O (some centres unmarked) [Compound 15, Trehalose-6-phosphate]",
    "endpoint.result": 4
  },
  {
    "compound": "C[C@]1(O[C@H]2OC(CO)[C@@H](O)C(O)C2F)OC(CO)[C@H](O)C(O)C1O (some centres unmarked)",
    "endpoint.result": 13
  },
  {
    "compound": "OC[C@H]1O[C@H](O[C@H]2O[C@H](CO)[C@H](F)[C@H](O)[C@H]2O)[C@H](O)[C@@H](O)[C@@H]1O",
    "endpoint.result": 412
  },
  {
    "compound": "OCC1O[C@H](O[C@@H]2CC(O)[C@@H](O)C(CO)O2)CC(O)[C@H]1O (some centres unmarked)",
    "endpoint.result": 4
  },
  {
    "compound": "C[C@]1(O[C@H]2OC(CO)[C@@H](O)C(O)C2O)OC(CO)[C@@H](O)C(O)C1O (some centres unmarked)",
    "endpoint.result": 13
  },
  {
    "compound": "C[C@]1(O[C@H]2OC(CO)[C@@H](O)C(O)C2O)OC(CO)[C@H](O)C(O)C1O (some centres unmarked)",
    "endpoint.result": 7
  },
  {
    "compound": "C[C@]1(O[C@H]2OC(CO)[C@@H](O)C(F)C2O)OC(CO)[C@@H](O)C(O)C1O (some centres unmarked)",
    "endpoint.result": 8
  },
  {
    "compound": "C[C@]1(O[C@H]2OC(CO)[C@@H](O)C(O)C2NC(=S)Nc2ccc(-c3c4ccc(=O)cc-4oc4cc(O)ccc34)c(C(=O)O)c2)OC(CO)[C@@H](O)C(O)C1O (some centres unmarked)",
    "endpoint.result": 38
  },
  {
    "compound": "O=P1(O)OCC2O[C@H](O[C@H]3OC(CO)[C@@H](O)C(O)C3O)C(O)C(O)[C@@H]2O1 (stereo partly drawn) [Compound 17, 4,6-(monohydrogen)phosphoryl-D-trehalose]",
    "endpoint.result": 17
  },
  {
    "compound": "OCC1O[C@H](O[C@H]2OC(CF)[C@@H](O)C(O)C2O)C(O)C(O)[C@@H]1O (some centres unmarked)",
    "endpoint.result": 412
  }
]
